# growth per entry
- Test system: E. coli TESEC Mtb Alr
- assay info: growth (OD600 after 10 h); higher = more growth (less inhibition)
- recorded conditions: arabinose 10000000 nM; compound 0.1 mM; raw OD600 reference: median of DMSO wells 0.146, cell-free background 0.041
Counter-ions that a name gives are not always drawn.
experimental readout: growth

| compound | value |
| --- | --- |
| CCC(=O)O[C@]1(C(=O)SCF)[C@H](C)C[C@H]2[C@@H]3C[C@H](F)C4=CC(=O)C=C[C@]4(C)[C@@]3(F)[C@@H](O)C[C@@]21C [Fluticasone propionate] | 0.149 |
| CC[N+](CC)(CC)CCOc1cccc(OCC[N+](CC)(CC)CC)c1OCC[N+](CC)(CC)CC [Gallamine triethiodide] | 0.167 |
| CC1=Nc2ccc(Cl)cc2S(=O)(=O)N1 [Diazoxide] | 0.146 |
| COc1ccc2c(c1)N(C[C@H](C)CN(C)C)c1ccccc1S2 [Methotrimeprazine maleat salt] | 0.179 |
| C[n+]1ccccc1/C=N/O [Pralidoxime chloride] | 0.156 |
| Clc1ccc(Cn2c(CN3CCCC3)nc3ccccc32)cc1 [Clemizole hydrochloride] | 0.0602 |
| CN(Cc1cnc2nc(N)nc(N)c2n1)c1ccc(C(=O)N[C@@H](CCC(=O)O)C(=O)O)cc1 [Methotrexate] | 0.144 |
| CC(C)(C)NC[C@H](O)COc1cccc2c1CCCC2=O [(-) -Levobunolol hydrochloride] | 0.141 |

----------
- Test system: E. coli TESEC Mtb Alr
- assay info: growth (OD600 after 10 h); higher = more growth (less inhibition)
- recorded conditions: arabinose 10000000 nM; compound 0.1 mM; raw OD600 reference: median of DMSO wells […], cell-free background 0.052
Where a name gives a salt, the structure may show the parent alone.

| compound | growth |
| --- | --- |
| O=C1CC2(CCCC2)CC(=O)N1CCCCN1CCN(c2ncccn2)CC1 [Buspirone hydrochloride] | 0.346 |
| CC[C@H]1OC(=O)[C@H](C)[C@@H](O[C@H]2C[C@@](C)(OC)[C@@H](O)[C@H](C)O2)[C@H](C)[C@@H](O[C@@H]2O[C@H](C)C[C@H](N(C)C)[C@H]2O)[C@](C)(O)C[C@@H](C)[C@@H]2N[C@@H](COCCOC)O[C@H]([C@H]2C)[C@]1(C)O | 0.0507 |
| C[C@]12C=CC(=O)C=C1CC[C@@H]1[C@@H]2C(=O)C[C@@]2(C)[C@H]1CC[C@]2(O)C(=O)CO | 0.352 |
| Nc1ccn([C@@H]2CS[C@H](CO)O2)c(=O)n1 | 0.357 |
| C(=C\c1ccccc1)/CN1CCN(C(c2ccccc2)c2ccccc2)CC1 | 0.375 |
| CC(=O)N(O)CCCCCNC(=O)CCC(=O)N(O)CCCCCNC(=O)CCC(=O)N(O)CCCCCN [Deferoxamine mesylate] | 0.0677 |
| CC[C@H](C)C(=O)O[C@H]1C[C@H](O)C=C2C=C[C@H](C)[C@H](CC[C@@H](O)C[C@@H](O)CC(=O)O)[C@H]21 | 0.337 |
| CC(C)(C)NCC(O)c1ccc(O)c(CO)c1 (stereo not given) | 0.383 |
| CC(=O)[C@@]1(O)CC[C@H]2[C@@H]3C[C@H](C)C4=CC(=O)C=C[C@]4(C)[C@@]3(F)[C@@H](O)C[C@@]21C | 0.334 |
| COc1ccccc1Oc1c(NS(=O)(=O)c2ccc(C(C)(C)C)cc2)nc(-c2ncccn2)nc1OCCO | 0.237 |
| CC(=O)Nc1c(I)c(NC(C)=O)c(I)c(C(=O)O)c1I [Diatrizoic acid dihydrate] | 0.348 |
| N=C(N)NC(=N)NCCc1ccccc1 [Phenformin hydrochloride] | 0.373 |
| COCCCC/C(=N\OCCN)c1ccc(C(F)(F)F)cc1 [Fluvoxamine maleate] | 0.319 |
| C[C@]12C[C@H](O)[C@H]3[C@@H](CCC4=CC(=O)CC[C@@]43C)[C@@H]1CC[C@@H]2C(=O)CO | 0.246 |
| COc1ccc(-c2cc(=S)ss2)cc1 | 0.369 |
